# assayTarget: Nav 1.7 (Homo sapiens (Human), UniProt Q15858)
# Sequence (Q15858 whole entry): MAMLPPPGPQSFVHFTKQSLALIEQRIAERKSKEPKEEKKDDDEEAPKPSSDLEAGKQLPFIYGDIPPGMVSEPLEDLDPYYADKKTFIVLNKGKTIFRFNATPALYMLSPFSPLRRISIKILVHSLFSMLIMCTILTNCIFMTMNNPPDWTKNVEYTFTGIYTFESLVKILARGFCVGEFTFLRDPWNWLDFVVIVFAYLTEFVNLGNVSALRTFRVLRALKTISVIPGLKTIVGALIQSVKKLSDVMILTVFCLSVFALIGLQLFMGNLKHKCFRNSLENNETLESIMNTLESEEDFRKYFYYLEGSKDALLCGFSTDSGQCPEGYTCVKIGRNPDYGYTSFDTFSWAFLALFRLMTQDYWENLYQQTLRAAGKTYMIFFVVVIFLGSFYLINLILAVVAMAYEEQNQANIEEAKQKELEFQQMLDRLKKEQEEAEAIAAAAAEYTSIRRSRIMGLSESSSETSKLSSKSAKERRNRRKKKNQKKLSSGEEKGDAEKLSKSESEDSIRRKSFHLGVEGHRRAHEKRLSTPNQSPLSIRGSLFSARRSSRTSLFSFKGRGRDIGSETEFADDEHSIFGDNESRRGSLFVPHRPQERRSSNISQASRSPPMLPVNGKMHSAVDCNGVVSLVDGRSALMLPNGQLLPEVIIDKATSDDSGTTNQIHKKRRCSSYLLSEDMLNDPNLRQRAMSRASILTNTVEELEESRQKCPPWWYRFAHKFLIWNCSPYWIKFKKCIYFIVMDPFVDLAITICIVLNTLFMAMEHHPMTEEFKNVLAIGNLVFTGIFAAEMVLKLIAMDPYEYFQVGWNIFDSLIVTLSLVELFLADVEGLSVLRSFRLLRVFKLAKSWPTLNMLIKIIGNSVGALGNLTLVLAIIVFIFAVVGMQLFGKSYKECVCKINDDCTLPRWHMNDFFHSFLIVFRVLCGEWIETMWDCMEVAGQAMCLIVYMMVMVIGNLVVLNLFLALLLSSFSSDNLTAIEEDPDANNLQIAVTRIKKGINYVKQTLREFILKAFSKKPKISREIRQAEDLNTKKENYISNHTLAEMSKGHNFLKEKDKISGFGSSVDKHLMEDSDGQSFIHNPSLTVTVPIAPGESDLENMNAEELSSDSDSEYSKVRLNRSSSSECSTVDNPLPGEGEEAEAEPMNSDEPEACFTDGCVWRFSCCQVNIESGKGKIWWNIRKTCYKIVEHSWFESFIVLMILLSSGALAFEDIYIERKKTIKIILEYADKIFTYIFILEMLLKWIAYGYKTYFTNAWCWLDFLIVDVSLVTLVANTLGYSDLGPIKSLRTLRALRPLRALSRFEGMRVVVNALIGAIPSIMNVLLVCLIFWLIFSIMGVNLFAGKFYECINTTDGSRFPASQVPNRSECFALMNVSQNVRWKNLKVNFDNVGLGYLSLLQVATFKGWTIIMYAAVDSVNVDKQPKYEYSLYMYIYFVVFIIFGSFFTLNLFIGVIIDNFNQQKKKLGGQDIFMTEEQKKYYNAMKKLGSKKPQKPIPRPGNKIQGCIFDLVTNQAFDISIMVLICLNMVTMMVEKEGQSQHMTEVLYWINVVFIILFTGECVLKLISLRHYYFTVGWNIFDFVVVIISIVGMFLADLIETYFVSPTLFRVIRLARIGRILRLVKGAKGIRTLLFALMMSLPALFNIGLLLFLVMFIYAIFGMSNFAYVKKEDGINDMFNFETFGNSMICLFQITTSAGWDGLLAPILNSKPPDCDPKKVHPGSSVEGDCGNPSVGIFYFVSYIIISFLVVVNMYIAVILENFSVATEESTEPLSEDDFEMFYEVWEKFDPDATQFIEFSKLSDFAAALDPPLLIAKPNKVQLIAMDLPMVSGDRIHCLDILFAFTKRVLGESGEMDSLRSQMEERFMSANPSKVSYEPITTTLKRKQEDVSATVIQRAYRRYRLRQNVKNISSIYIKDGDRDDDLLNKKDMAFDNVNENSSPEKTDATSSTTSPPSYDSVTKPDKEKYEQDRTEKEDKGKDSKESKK
# assay: Nav 1.7 IWQ in vitro assay (IonWorks Quattro population patch-clamp)
# Assay type: cell-based
# recordedConditions: 293 cells stably transfected with Nav 1.7; first part of table; read-out: Nav 1.7 IWQ IC50
measurementType: IC50
Please append the unit to your numeric answer.

Here is how some compounds turned out for IC50.
{"smilesData": "O=S(=O)(Nc1ncns1)c1ccc2c(-c3ccc(C(F)(F)F)cc3-c3ccncc3)cccc2c1", "measurementType": "IC50", "reportedResult": "30 nM"}
{"smilesData": "O=S(=O)(Nc1ncns1)c1ccc2c(-c3ccc(C(F)(F)F)cc3-c3cn[nH]c3)nccc2c1", "measurementType": "IC50", "reportedResult": "10 nM"}
{"smilesData": "O=S(=O)(Nc1ncns1)c1ccc2c(-c3ccc(C(F)(F)F)cc3O)nccc2c1", "measurementType": "IC50", "reportedResult": "600 nM"}
{"smilesData": "COc1cc(C(F)(F)F)ccc1-c1nccc2cc(S(=O)(=O)Nc3ccncn3)ccc12", "measurementType": "IC50", "reportedResult": "80 nM"}
{"smilesData": "COc1cc(C(F)(F)F)ccc1-c1cccc2cc(S(=O)(=O)Nc3ccncn3)ccc12", "measurementType": "IC50", "reportedResult": "50 nM"}
{"smilesData": "O=S(=O)(Nc1nccs1)c1ccc2c(-c3ccc(C(F)(F)F)cc3C3=CCNCC3)cccc2c1", "measurementType": "IC50", "reportedResult": "70 nM"}
{"smilesData": "O=S(=O)(Nc1ncns1)c1ccc2c(-c3ccc(Cl)cc3C3=CCNCC3)cccc2c1", "measurementType": "IC50", "reportedResult": "20 nM"}

// next item, IC50 requested
For record O=S(=O)(Nc1ncns1)c1ccc2c(-c3ccc(OC(F)(F)F)cc3Cl)cccc2c1 the listed IC50 is 900 nM

###

# assayTarget: Nav 1.7 (Homo sapiens (Human), UniProt Q15858)
# assay: Nav 1.7 in vitro PX assay (PatchXpress whole cell voltage clamp)
# Type: cell-based
# recordedConditions: 293 cells, human Nav1.7, partially inactivated state; read-out: Nav1.7 PX IC50 IP
Where a name gives a salt, the structure may show the parent alone.
Assignment: determine reported pIC50 for the given molecules.
Give bare numbers, as −log10 of the molar value.

Solved cases (8 shown):
{"molecule": "COc1cc(C(F)(F)F)ccc1-c1nccc2cc(S(=O)(=O)Nc3ccon3)ccc12 [Example 423]", "pIC50": 5.87}
{"molecule": "COc1cc(F)ccc1-c1ccnc2cc(S(=O)(=O)Nc3nccs3)ccc12 [Example 274]", "pIC50": 6.31}
{"molecule": "O=S(=O)(Nc1ccncn1)c1ccc2c(-c3ccc(C(F)(F)F)cc3C3CCNCC3)cccc2c1 [Example 120]", "pIC50": 6.90}
{"molecule": "COc1cc(F)ccc1-c1nccc2cc(S(=O)(=O)Nc3nccs3)ccc12 [Example 405]", "pIC50": 6.35}
{"molecule": "O=S(=O)(Nc1ncns1)c1ccc2c(C3CCCN3)cccc2c1 (stereo not shown) [Example 95, 2,2,2-TRIFLUOROACETATE]", "pIC50": 5.10}
{"molecule": "COc1cc(F)ccc1-c1cncc2cc(S(=O)(=O)Nc3nccs3)ccc12 [Example 290]", "pIC50": 6.22}
{"molecule": "COc1cc(-c2ccc(C)c(C)c2)ccc1-c1nccc2cc(S(=O)(=O)Nc3ccncn3)ccc12 [Example 469]", "pIC50": 6.77}
{"molecule": "COC[C@H]1CCCN1c1ncnc2cc(S(=O)(=O)Nc3nccs3)ccc12 [Example 534]", "pIC50": 4.53}

Look up pIC50 for the entries below, preserving their order.
1. Cn1cc(-c2cc(F)ccc2-c2nccc3cc(S(=O)(=O)Nc4nccs4)ccc23)cn1 [Example 129, TRIFLUOROACETATE]
2. O=S(=O)(Nc1ncns1)c1ccc2c(N3CCC[C@@H]3c3ccncc3)cccc2c1 (single isomer, unassigned) [Example 90]

Result:
1: 5.10; 2: 7.41

Dear colleague, could you please provide pIC50 for the molecules listed below?
1. CC(C)(O)c1ccccc1-c1nccc2cc(S(=O)(=O)Nc3nccs3)ccc12 [Example 384]
2. COc1cc(-c2cccnc2)c(F)cc1-c1nccc2cc(S(=O)(=O)Nc3nncs3)ccc12 [Example 367]
3. COc1cc(F)ccc1-c1ncc(C#N)c2cc(S(=O)(=O)Nc3nccs3)ccc12 [Example 399]
4. COc1cc(C(F)(F)F)ccc1-c1ccnc2cc(S(=O)(=O)Nc3nccs3)ncc12 [Example 294]
5. COc1cc(C(F)(F)F)ccc1-c1ncnc2cc(S(=O)(=O)Nc3ncc(F)s3)ccc12 [Example 263]
6. COc1cc(Cl)c(C#N)cc1-c1nccc2cc(S(=O)(=O)Nc3ncns3)ccc12 [Example 336]

Result:
1: 5.17; 2: 5.85; 3: 6.17; 4: 5.60; 5: 6.55; 6: 6.81

###

# assayTarget: UniProtKB Q15858
# assay: Nav 1.7 IWQ in vitro assay (IonWorks Quattro population patch-clamp)
# Assay type: cell-based
# recordedConditions: 293 cells stably transfected with Nav 1.7; second part of table; read-out: Nav1.7 IWQ IC50 IP
measurementType: pIC50
Give bare numbers, as −log10 of the molar value.

{"compound": "COc1cc(C(F)(F)F)ccc1-c1ncc(C#N)c2cc(S(=O)(=O)Nc3nccs3)ccc12", "measurementType": "pIC50", "reportedResult": 6.72}
{"compound": "COc1cc(Cl)c(Cl)cc1-c1nccc2cc(S(=O)(=O)Nc3ccncn3)ccc12", "measurementType": "pIC50", "reportedResult": 7.70}
{"compound": "O=S(=O)(Nc1ncns1)c1ccc2c(C3CCCN3Cc3ccccc3)cccc2c1 (centres unmarked)", "measurementType": "pIC50", "reportedResult": 6.34}
{"compound": "COc1cnccc1-c1nccc2cc(S(=O)(=O)Nc3ccncn3)ccc12", "measurementType": "pIC50", "reportedResult": 5.29}

List the reported pIC50 of each compound below.
1. O=S(=O)(Nc1nccs1)c1ccc2c(N3CCCC3c3ccccc3)nccc2c1 (centres unmarked)
2. O=S(=O)(Nc1nccs1)c1ccc2c(-c3ccn(-c4ccccc4)c3)nccc2c1 [Example 207, 2,2,2-TRIFLUOROACETATE]
3. O=S(=O)(Nc1ncc(F)s1)c1ccc2c(-c3ccc(C(F)(F)F)cc3C3CCNCC3)cccc2c1

Result:
6.13
5.68
7.10

###

# assayTarget: Nav 1.7 (Homo sapiens (Human), UniProt Q15858)
# assay: Nav 1.7 IWQ in vitro assay (IonWorks Quattro population patch-clamp)
# Format: cell-based
# recordedConditions: at […]
Mark YES only for Nav1.7 Single Point Data IWQ (at […]) (%) values smaller than 30%; exact matches and larger values are NO.

Query: Lab note: Nav1.7 Single Point Data IWQ (at […]) (%) threshold 30%. Does this compound come in strictly under it? COC(=O)c1cccc2cc(S(=O)(=O)Nc3ncns3)ccc12
Result: NO

Query: For this compound, is Nav1.7 Single Point Data IWQ (at […]) (%) lower than 30%? O=S(=O)(Nc1ccncn1)c1ccc2c(-c3cccc4cccnc34)nccc2c1
Result: NO

Query: Take the compound CCC1CCCCN1c1ncnc2cc(S(=O)(=O)Nc3nccs3)ccc12 (centres unmarked) and say whether its Nav1.7 Single Point Data IWQ (at […]) (%) is less than 30%.
Result: YES

Query: Is it true that Nav1.7 Single Point Data IWQ (at […]) (%) reported for Cn1nc(C(F)(F)F)cc1-c1nccc2cc(S(=O)(=O)Nc3ccncn3)ccc12 is less than 30%?
Result: NO

Query: A record lists COc1cc(C(F)(F)F)ccc1-c1c(O)ncc2cc(S(=O)(=O)Nc3nccs3)ccc12 . Is its Nav1.7 Single Point Data IWQ (at […]) (%) below 30%?
Result: YES

###

# assayTarget: Nav 1.5 (Homo sapiens (Human), UniProt Q14524)
# Sequence (Q14524 whole entry): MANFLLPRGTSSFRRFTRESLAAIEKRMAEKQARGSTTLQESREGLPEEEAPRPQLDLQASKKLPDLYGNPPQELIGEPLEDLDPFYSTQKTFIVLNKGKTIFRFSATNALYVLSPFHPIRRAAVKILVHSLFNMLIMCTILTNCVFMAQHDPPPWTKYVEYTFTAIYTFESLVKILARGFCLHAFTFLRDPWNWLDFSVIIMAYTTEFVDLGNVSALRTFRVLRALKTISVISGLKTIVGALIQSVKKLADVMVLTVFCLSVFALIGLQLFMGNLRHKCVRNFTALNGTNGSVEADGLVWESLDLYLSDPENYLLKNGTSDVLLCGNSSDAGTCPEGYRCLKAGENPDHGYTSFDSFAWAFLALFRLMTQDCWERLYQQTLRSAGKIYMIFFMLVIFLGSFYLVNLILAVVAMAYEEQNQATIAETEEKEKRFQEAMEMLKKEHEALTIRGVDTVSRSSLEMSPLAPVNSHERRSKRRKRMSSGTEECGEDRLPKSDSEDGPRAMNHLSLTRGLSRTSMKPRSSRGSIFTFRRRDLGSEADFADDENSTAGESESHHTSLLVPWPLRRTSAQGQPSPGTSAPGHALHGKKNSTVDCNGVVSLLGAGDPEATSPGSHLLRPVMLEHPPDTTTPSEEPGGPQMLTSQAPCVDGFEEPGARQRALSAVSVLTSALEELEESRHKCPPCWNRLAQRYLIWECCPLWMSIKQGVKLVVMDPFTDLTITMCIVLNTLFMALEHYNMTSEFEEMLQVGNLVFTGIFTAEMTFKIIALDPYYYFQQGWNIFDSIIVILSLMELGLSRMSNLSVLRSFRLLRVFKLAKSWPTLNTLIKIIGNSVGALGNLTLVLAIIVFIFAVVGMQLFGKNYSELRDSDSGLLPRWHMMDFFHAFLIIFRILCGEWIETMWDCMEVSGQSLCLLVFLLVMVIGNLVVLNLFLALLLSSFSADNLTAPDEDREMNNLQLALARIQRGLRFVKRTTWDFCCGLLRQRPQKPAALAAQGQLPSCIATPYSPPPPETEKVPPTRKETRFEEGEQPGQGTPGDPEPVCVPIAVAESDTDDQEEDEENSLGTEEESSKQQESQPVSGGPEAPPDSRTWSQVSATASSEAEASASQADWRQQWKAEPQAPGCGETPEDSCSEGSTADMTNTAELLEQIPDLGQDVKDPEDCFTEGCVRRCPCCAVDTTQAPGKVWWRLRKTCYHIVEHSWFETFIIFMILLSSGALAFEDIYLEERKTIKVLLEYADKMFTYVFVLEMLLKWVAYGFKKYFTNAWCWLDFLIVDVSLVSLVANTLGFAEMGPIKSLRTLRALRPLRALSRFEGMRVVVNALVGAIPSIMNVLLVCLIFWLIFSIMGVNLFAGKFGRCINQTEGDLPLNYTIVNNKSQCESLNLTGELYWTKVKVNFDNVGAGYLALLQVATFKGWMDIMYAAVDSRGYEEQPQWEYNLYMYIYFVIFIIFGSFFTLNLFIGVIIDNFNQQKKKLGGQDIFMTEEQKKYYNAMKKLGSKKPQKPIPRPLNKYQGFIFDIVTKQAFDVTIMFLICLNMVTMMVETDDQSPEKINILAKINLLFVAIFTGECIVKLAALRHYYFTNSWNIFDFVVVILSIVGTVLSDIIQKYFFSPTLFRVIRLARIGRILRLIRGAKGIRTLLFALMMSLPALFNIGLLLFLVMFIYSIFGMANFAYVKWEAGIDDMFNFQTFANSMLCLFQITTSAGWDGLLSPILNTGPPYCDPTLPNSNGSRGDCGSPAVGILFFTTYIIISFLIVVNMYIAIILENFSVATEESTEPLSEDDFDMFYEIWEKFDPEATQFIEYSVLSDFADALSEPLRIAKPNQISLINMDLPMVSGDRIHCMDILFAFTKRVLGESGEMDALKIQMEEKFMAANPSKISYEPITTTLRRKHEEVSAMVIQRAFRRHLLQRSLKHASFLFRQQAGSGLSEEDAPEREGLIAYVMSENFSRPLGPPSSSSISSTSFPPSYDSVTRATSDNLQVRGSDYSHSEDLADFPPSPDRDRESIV
# assay: Nav 1.5 in vitro PX assay (PatchXpress whole cell voltage clamp)
# Type: cell-based
# recordedConditions: 293 cells stably transfected with Nav 1.5; second part of table; read-out: Nav1.5 PX IC50
# Description: Nav 1.5 In Vitro PX Assay 293 cells stably transfected with Nav 1.5 were recorded in whole cell voltage clamp mode with the PatchXpress automated electrophysiology system according the manufacturer's specifications (Molecular Devices, LLC, Sunnyvale, Calif.). Cells were held at a holding potential of −50 mV to inactivate sodium channels. […] Peak sodium current was measured at the end of the compound addition period to determine percent inhibition. […]
pIC50: −log10 of the molar value.
measurementType: pIC50

{"compound": "COc1cc(-c2ccc(F)cc2)ccc1-c1nccc2cc(S(=O)(=O)Nc3ccncn3)ccc12", "pIC50": "< 4.52"}
{"compound": "COc1cc(Cl)ccc1-c1ncnc2cc(S(=O)(=O)Nc3ncns3)ccc12", "pIC50": "< 4.52"}

List pIC50 for every entry below, keeping the order given.
1. COc1cc(C(F)(F)F)ccc1-c1ncc(O)c2cc(S(=O)(=O)Nc3nccs3)ccc12
2. COc1cc(-c2ccc(F)c(C)c2)ccc1-c1nccc2cc(S(=O)(=O)Nc3ccncn3)ccc12
3. COc1cc(C(F)(F)F)ccc1-c1nccc2cc(S(=O)(=O)Nc3nc(C#N)cs3)ccc12
4. COc1cc(-c2ccc(F)c(F)c2)ccc1-c1nccc2cc(S(=O)(=O)Nc3ccncn3)ccc12

Result:
1. 4.69
2. < 4.52
3. < 4.52
4. < 4.52

// each compound listed below needs its pIC50
1. COc1cc(C(F)(F)F)ccc1-c1ccnc2cc(S(=O)(=O)Nc3nccs3)c(F)cc12 [Example 319, 2,2,2-TRIFLUOROACETATE]
2. COc1cc(OCC(C)C)ccc1-c1nccc2cc(S(=O)(=O)Nc3ccncn3)ccc12

Result:
1. 5.55
2. < 4.52
